System: Plasmodium falciparum
experimentDescription: Antimalarial activity against chloroquine-resistant Plasmodium falciparum W2 as [3H]hypoxanthine uptake
Type: functional, organism-based
# IC50 per entry
The reply should contain only the number, in µg/mL.

> print(dat)
                                   molecule  readoutkind  unitstring  numericvalue
1  C=C[C@H]1CN2CC[C@H]1C[C@H]2[C@H](O)c1ccnc2ccc(OC)cc12 [QUININE]         IC50       µg/mL        0.0388

[ask] Fill in: IC50 on Plasmodium falciparum, entry COc1cc2c(cc1OC)[C@]13CCN(C)[C@@H](C2)[C@@H]1CC(=O)C(OC)C3 (some centres not stated)
[reply] 9.02

[ask] Determine reported IC50 for COc1ccc2c(c1O)-c1c(OC)c(OC)cc3c1[C@H](C2)N(C)CC3 [ISOCORYDINE] ; test system: Plasmodium falciparum.
[reply] 2.83

[ask] Send back Plasmodium falciparum IC50 of COc1cc2c(cc1O)C[C@H]1c3c(cc(OC)c(OC)c3-2)CCN1C only.
[reply] 2.7

[ask] State measured IC50 of the molecule COc1ccc2c(c1O)[C@H](Cc1ccc(O)cc1)NCC2 with Plasmodium falciparum.
[reply] 3.1

[ask] Determine reported IC50 for C[C@@H]1CC[C@H]2[C@@H](C)C(=O)O[C@@H]3O[C@@]4(C)CC[C@@H]1[C@]32OO4 [ARTEMISININ] ; test system: Plasmodium falciparum.
[reply] 0.0022

[ask] Given COc1cc2c(cc1O)[C@H](Cc1ccc(O)cc1)N(C)CC2 , report its IC50 on Plasmodium falciparum.
[reply] 3.81

* * *

Tested on: Plasmodium falciparum
experimentDescription: Antimalarial activity against chloroquine-resistant Plasmodium falciparum W2 as [3H]hypoxanthine uptake
Type: functional, organism-based
Collected IC50 values appear next to each entry.
Field: numeric (µg/mL). Do not append units.

The cases that follow already have their IC50 on record.
> print(dat)
                                   compound  unitstring  numericvalue
1  COc1cc2c(cc1O)C[C@@H]1NCCc3cc(O)c(OC)c-2c31 [NORBOLDINE]       µg/mL          1.68
2  COc1cc2c(cc1O)C[C@H]1c3c(cc(O)c(OC)c3-2)CCN1C [BOLDINE]       µg/mL          1.47
3  COc1ccc(C[C@H]2c3cc(O)c(OC)cc3CCN2C)cc1O [(S)-RETICULINE]       µg/mL          3.65
4  COc1cc2c(cc1O)C[C@H]1c3c(cc(OC)c(O)c3-2)CCN1C [ISOBOLDINE]       µg/mL         0.904

[ask] State, in one line, measured IC50 of COc1ccc2c(c1O)[C@H](Cc1ccc(O)cc1)N(C)CC2
[reply] 4.48

[ask] Let me know recorded IC50 for COc1cc2c(cc1O)C[C@@H]1NCCc3cc(OC)c(OC)c-2c31 [LAUROTETANINE] , thanks.
[reply] 2.53

[ask] Dear colleague, please send me the reported IC50 for COc1cc2c(cc1O)[C@@H](Cc1ccc(Oc3cc(C[C@H]4NCCc5cc(OC)c(O)cc54)ccc3OC)cc1)NCC2 [COSTARICINE] when you can.
[reply] 0.294

[ask] Output measured IC50 for this item: COc1ccc2c(c1O)-c1c(OC)c(OC)cc3c1[C@H](C2)NCC3
[reply] 1.9

[ask] Supply recorded IC50 for COc1cc2c(cc1OC)-c1c(OC)c(OC)c(OC)c3c1[C@H](C2)NCC3 here.
[reply] 1.75
